- System: Saccharomyces cerevisiae BY4741 SeMeCo community
- test name: z-score of subpopulation abundance vs DMSO median, subpopulation auxotrophic for HL; higher = larger share of this subpopulation than in DMSO controls
- condition: 10 µM; 24 h; SM minimal medium; subpopulation (auxotrophy): HL
Where a name gives a salt, the structure may show the parent alone.
endpoint: z-score of subpopulation abundance

So what does the record say about z-score of subpopulation abundance for CC[C@H]1OC(=O)C[C@@H](O)[C@H](C)[C@@H](O[C@@H]2O[C@H](C)[C@@H](O)[C@H](N(C)C)[C@H]2O)[C@@H](CCN2C[C@H](C)C[C@H](C)C2)C[C@@H](C)C(=O)/C=C/C(C)=C/[C@@H]1CO[C@@H]1O[C@H](C)[C@@H](O)[C@@H](OC)[C@H]1OC [Tilmicosin phosphate] ?
-0.13

Another molecule to check: `Nc1nc2c(ncn2COC(CO)CO)c(=O)[nH]1`
-0.27

Try CC(=O)O[C@H]1C[C@@]2(C)[C@@H](C[C@@H](O)[C@H]3[C@@]4(C)CC[C@@H](O)[C@@H](C)[C@@H]4CC[C@@]32C)/C1=C(\CCC=C(C)C)C(=O)O [Fusidate Sodium] next.
1.13

Entry CN(C)CCC[C@@]1(c2ccc(F)cc2)OCc2cc(C#N)ccc21 [Escitalopram Oxalate] please
-0.1

Same question, COc1c(N2C[C@@H]3CCCN[C@@H]3C2)c(F)cc2c(=O)c(C(=O)O)cn(C3CC3)c12 [Moxifloxacin HCl] this time
1.26

Again, but for `CO[C@@H]1[C@H](OC(=O)/C=C/C=C/C=C/C=C/C(=O)O)CC[C@]2(CO2)[C@H]1[C@@]1(C)O[C@@H]1CC=C(C)C`
1.92

Another molecule: COc1ccnc(C[S+]([O-])c2nc3cc(OC(F)F)ccc3[nH]2)c1OC (stereo unspecified)
0.9

Input CC1CCc2c(N3CCC(O)CC3)c(F)cc3c(=O)c(C(=O)O)cn1c23 (stereo unspecified)
0

Next record, please: `Cc1cccc(Nc2ccccc2C(=O)O)c1C`
0.24

# iterate: O=C(O)Cc1ccccc1Nc1c(Cl)cccc1Cl [Diclofenac Diethylamine]
-1.1

Try this molecule next: `CCCOc1ccc2c(c1)CC[C@@H]1[C@@H]2CC[C@]2(C)[C@@H](OC)CC[C@@H]12`
0.84

Try the molecule Cc1onc(-c2ccccc2)c1C(=O)N[C@@H]1C(=O)N2[C@@H]1SC(C)(C)[C@@H]2C(=O)O [Oxacillin sodium monohydrate]
0.94

Check COC(=O)C1=C(C)NC(C)=C(C(=O)OCC(C)C)C1c1ccccc1[N+](=O)[O-] (stereo unspecified) too.
0.67

Request: CCn1cc(C(=O)O)c(=O)c2cc(F)c(N3CCNCC3)nc21 [Enoxacin Sesquihydrate]
-0.59

How about `O=C(O)CCNC(=O)c1ccccc1` ?
-0.92

Entry to check: `C[C@]12CC[C@@H]3c4ccc(O)cc4CC[C@H]3[C@@H]1C[C@@H](O)[C@@H]2O`
-0.01

How about `NC(CO)(CO)CO` ?
0

Query CCCNC(C)C(=O)Nc1ccccc1C (stereo unspecified) [Prilocaine hydrochloride] next
0.03

Next entry: CN(C)CCC=C1c2ccccc2CCc2ccccc21 [Amitriptyline HCl]
-0.48

Also need `COc1ccc(C(C)=O)c(O)c1` , thanks.
-0.25

What do you get for CO/N=C(\C(=O)N[C@@H]1C(=O)N2C(C(=O)O)=C(COC(N)=O)CS[C@H]12)c1ccco1 [Cefuroxime sodium] ?
-0.76

Also need Cc1nc(Nc2ccc(F)cc2)nc(N2CCc3ccccc3C2C)c1C (stereo unspecified) [Revaprazan Hydrochloride] , thanks.
0.35

Would you mind doing `C(=C\c1ccccc1)/CN1CCN(C(c2ccccc2)c2ccccc2)CC1` as well?
0.34

Try O=C(O[C@@H]1C[C@@H]2C[C@H]3C[C@H](C1)N2CC3=O)c1c[nH]c2ccccc12 [Dolasetron Mesylate] next.
0

// query: `CC(=O)NC[C@H]1CN(c2ccc(N3CCOCC3)c(F)c2)C(=O)O1`
-0.58

Another: `C#C[C@]1(O)CC[C@H]2[C@@H]3CCC4=CCCC[C@@H]4[C@H]3CC[C@@]21C`
-0.15

Then Nc1ccc(/N=N/c2ccccc2)c(N)n1 [Phenazopyridine HCl] ?
0.92

What do you get for COc1ccc2c3c1O[C@H]1C[C@@H](O)C=C[C@@]31CCN(C)C2 [Galanthamine] ?
0.83

Record: CN1C2CCCC1CC(NC(=O)c1nn(C)c3ccccc13)C2 (stereo unspecified) [Granisetron]
-1.17

// same read-out, input: Clc1ccc(CCC(Cn2ccnc2)Sc2c(Cl)cccc2Cl)cc1 (stereo unspecified) [Butoconazole nitrate]
14.5

Also need `C=CC[C@@H]1/C=C(\C)C[C@H](C)C[C@H](OC)[C@H]2O[C@@](O)(C(=O)C(=O)N3CCCC[C@H]3C(=O)O[C@H](/C(C)=C/[C@@H]3CC[C@@H](O)[C@H](OC)C3)[C@H](C)[C@@H](O)CC1=O)[C@H](C)C[C@@H]2OC` , thanks.
1.89
